EXPERIMENT DESCRIPTION: qHTS Assay for Lipid Storage Modulators in Drosophila S3 Cells
CONDITION PARAMETERS: BODIPY lipid droplet fluorescence, 18-24 h, cells fed with added oleic acid; series mostly up to 46.1 µM
Hit rate of the full screen: of about 320,000 compounds, about 2,100 (0.66%) were called active. Another 53% or so got no clear call; they are omitted. The call rests on the fitted dose curve; in most records, active means well fitted inhibition curve with a large enough effect in the signal ratio, with a control signal flat (not every such curve was filed as active); inconclusive means small, poorly fitted or top-dose-only effect, or effect the other way, or a change in a side signal; inactive means flat fitted curve, though single readings scatter; the % refers to the signal ratio. The full list was thinned out, with actives kept by preference.
Your reply should match one of these outcome classes. 1 = active, -1 = inactive

Exercise: Tell me the recorded outcome of this test for C=CCn1c(COc2cc(C)ccc2C(C)C)nnc1SCC(=O)c1c(N)n(C)c(=O)n(C)c1=O .
Solution: -1

Exercise: Tell me the recorded outcome of this test for COc1cc(CNc2ncn[nH]2)ccc1OCC(=O)NC(C)(C)C .
Solution: -1

Exercise: Tell me the recorded outcome of this test for CSc1nnc(C)c(=O)n1COC(=O)COc1ccc(F)cc1 .
Solution: -1

Exercise: Tell me the recorded outcome of this test for O=C(C[n+]1ccccc1)N/N=C/c1cccc(Cl)c1Cl .
Solution: -1

Exercise: Tell me the recorded outcome of this test for Cc1nnc(SCc2ccc(F)cc2)s1 .
Solution: 1

Exercise: Tell me the recorded outcome of this test for CCC(O)(CC)C(=O)NN(C(=O)CCl)c1ccccc1 .
Solution: 1

Exercise: Tell me the recorded outcome of this test for CCCCC(C(=O)N/N=C/c1ccccn1)C(=O)N/N=C/c1ccccn1 .
Solution: -1

Exercise: Tell me the recorded outcome of this test for COc1cccc(C(=O)NCCS(=O)(=O)N2CC(C)CC(C)C2)c1 (centres undefined) .
Solution: -1

Exercise: Tell me the recorded outcome of this test for COC(=O)CSc1n[nH]c(=S)s1 .
Solution: -1
